TEST_SYSTEM: VARV ortholog of L1 (variola virus)
PROTOCOL_DESCRIPTION: purified antigen ELISA
METRIC_NAME: EC50 (µg/mL)
Express your answer in µg/mL, writing the number without its unit.

Query: Report EC50 for MPXV-83 (antibody, V domains shown) VH: QVQLVESGGGVVQPGRSLRLSCAASGFTFSSYSMHWVRQAPGKGLEWVAVISFDGRSNYYADSVRGRFTISRDNSKKTMYLQMNSLRLADTAVYYCARGGIGAPDPRNGLEVWGRGAPVTLSS VL: DIQMIQSPSSLSASVGDRVTISCQATQDISNSVNWYQQKPGKAPKLLIYDASTLETGVPSRFSGGGSGTHFTFTISSLQPEDIATYYCQQFHSLPPTFGQGPKGISK
Result: 0.065

Data provenance: patent US11667697
